# Tested on: Escherichia coli
# Measurement protocol: Potentiation of meropenem-induced antibacterial activity against Escherichia coli C1542 expressing VIM-2 assessed as fold reduction in meropenem MIC at 10 ug/ml incubated for 18 to 20 hrs by CLSI based broth microtiter dilution method
# Format: functional
# Test parameters: dose 10 µg/ml; time 18-20 hrs
Measured parameter: fold change (FC)

Consider the worked cases shown below.
O=C(O)c1nccn1Cc1ccncc1 :: >64
O=C(O)c1nccn1Cc1ccccc1 :: 1
O=C(O)c1ncc(-c2ccccc2)n1Cc1ccccc1 :: 16

Give fold change (FC) for each listed item.
1. C=CCCn1ccnc1C(=O)O
2. O=C(O)c1nccn1Cc1cc(Br)cc(Br)c1
3. O=C(O)c1nccn1Cc1ccc(O)cc1

[2, 16, ">64"]

Value lookup for fold change (FC); key = "N#Cc1ccc(Cn2ccnc2C(=O)O)cc1" >64

----------
# Measurement protocol: Inhibition of bacterial VIM-2 (27 to 266 residues) expressed in Escherichia coli Transetta (DE3) using FC-5 as substrate preincubated with enzyme for 10 mins followed by substrate addition by fluorescence based analysis
# Set-up: species or system Bacteria
Measured parameter: pIC50
Give bare numbers, as −log10 of the molar value.

CCCn1ccnc1C(=O)O :: 5.57
N#CCCn1ccnc1C(=O)O :: 4.65
Nc1cccc(Cn2ccnc2C(=O)O)c1 :: 5.11
CCC(C)n1ccnc1C(=O)O (stereo not drawn) :: 5.69
C=CCn1ccnc1C(=O)O :: 4.33

Give pIC50 for each listed item.
1. O=C(O)c1nccn1Cc1ccc(C(F)(F)F)cc1
2. O=C(O)c1nccn1Cc1cc(Br)cc(Br)c1
3. Nc1nc2ccc(Cn3ccnc3C(=O)O)cc2s1
4. O=C(O)c1nc(-c2ccccc2)cn1Cc1ccccc1
5. Cn1cc(Cn2ccnc2C(=O)O)cn1
6. O=C(O)c1nccn1Cc1ccc(Cl)c(Cl)c1
7. C=CCCn1cc(C)nc1C(=O)O

[6.25, 7.85, 7.72, 4.10, 4.48, 7.85, 4.86]

Give pIC50 for each listed item.
1. O=C(O)c1nccn1Cc1ccccc1
2. O=C(O)c1ncc[nH]1
3. CSCn1ccnc1C(=O)O
4. O=C(O)c1nccn1Cc1ccc(O)cc1
5. O=C(O)c1nccn1Cc1cccs1
6. C=CCCn1c(C)cnc1C(=O)O

1: 6.32; 2: 4.18; 3: 5.16; 4: 6.77; 5: 5.57; 6: 6.10

Give pIC50 for each listed item.
1. O=C(O)c1ncc(C2CC2)n1Cc1ccccc1
2. NCCCn1ccnc1C(=O)O
3. O=C(O)c1nccn1CCO
4. O=C(O)c1nccn1C1CCCC1
5. N#Cc1ccc(Cn2ccnc2C(=O)O)cc1
6. N#CCCCn1ccnc1C(=O)O
7. C[S+]([O-])Cn1ccnc1C(=O)O (stereo not drawn)

[6.89, 4.37, 4.12, 4.15, 6.54, 4.93, 4.19]

----------
Assignment: determine reported MIC for the given molecules.
# System: Pseudomonas aeruginosa
# Measurement protocol: Potentiation of meropenem-induced antibacterial activity against Pseudomonas aeruginosa 5621 expressing VIM-2 assessed as meropenem MIC at 100 ug/ml incubated for 18 to 20 hrs in presence of meropenem by CLSI based broth microtiter dilution method (reference value: 64 ug/ml)
# Type: functional
# Test parameters: dose 100 µg/ml, time 18-20 hrs
Answers are plain numbers, in µg/mL.

Consider the worked cases shown below.
O=C(O)c1nccn1Cc1ccc(O)cc1 :: 64
Nc1nc2c(Cn3ccnc3C(=O)O)cccc2s1 :: 64
NCc1ccc(Cn2ccnc2C(=O)O)cc1 :: 32
Cc1cnc(C(=O)O)n1Cc1ccccc1 :: 32
O=C(O)c1nccn1Cc1ccccc1 :: 64

Now turn to the next molecule.
Value lookup for MIC; key = "N#Cc1ccc(Cn2ccnc2C(=O)O)cc1" 64

----------
Assignment: determine reported fold change (FC) for the given compounds.
# Tested on: Escherichia coli
# Measurement protocol: Potentiation of meropenem-induced antibacterial activity against Escherichia coli C1542 expressing VIM-2 assessed as fold reduction in meropenem MIC at 10 ug/ml incubated for 18 to 20 hrs by CLSI based broth microtiter dilution method
# Type: functional
# Test parameters: dose 10 µg/ml; time 18-20 hrs

Consider the worked cases shown below.
Nc1nc2c(Cn3ccnc3C(=O)O)cccc2s1 :: >64
COc1ccc(Cn2ccnc2C(=O)O)cc1 :: >64

Now turn to the next compound.
Value lookup for fold change (FC); key = "Nc1nc2ccc(Cn3ccnc3C(=O)O)cc2s1" >64

----------
# Test system: Escherichia coli
# Measurement protocol: Potentiation of meropenem-induced antibacterial activity against Escherichia coli C1541 expressing VIM-2 assessed as meropenem MIC at 10 ug/ml incubated for 18 to 20 hrs by CLSI based broth microtiter dilution method (reference value: 16 ug/ml)
# Assay type: functional
# Test parameters: dose 10 µg/ml, time 18-20 hrs
Assignment: determine reported MIC for the given compounds.

Consider the worked cases shown below.
N#Cc1ccc(Cn2ccnc2C(=O)O)cc1 :: < 0.25 µg/mL
O=C(O)c1nccn1Cc1ccncc1 :: < 0.25 µg/mL
Cc1cnc(C(=O)O)n1Cc1ccccc1 :: < 0.25 µg/mL

Now turn to the next compound.
Value lookup for MIC; key = "Nc1nc2ccc(Cn3ccnc3C(=O)O)cc2s1" < 0.25 µg/mL

----------
# Tested on: Pseudomonas aeruginosa
# Measurement protocol: Potentiation of meropenem-induced antibacterial activity against Pseudomonas aeruginosa 5621 expressing VIM-2 assessed as fold reduction in meropenem MIC at 100 ug/ml incubated for 18 to 20 hrs by CLSI based broth microtiter dilution method
# Type: functional
# Test parameters: dose 100 µg/ml; time 18-20 hrs
Assignment: determine reported fold change (FC) for the given compounds.
Numbers only.

Consider the worked cases shown below.
O=C(O)c1nccn1Cc1cc(Br)cc(Br)c1 :: 2
COc1ccc(Cn2ccnc2C(=O)O)cc1 :: 1
Cc1cnc(C(=O)O)n1Cc1ccccc1 :: 2
N#Cc1ccc(Cn2ccnc2C(=O)O)cc1 :: 1

Value lookup for fold change (FC); key = "O=C(O)c1nccn1Cc1ccc(O)cc1" 1

----------
# Measurement protocol: Inhibition of bacterial VIM-2 (27 to 266 residues) expressed in Escherichia coli Transetta (DE3) using FC-5 as substrate preincubated with enzyme for 10 mins followed by substrate addition by fluorescence based analysis
# Set-up: species or system Bacteria
Measured parameter: IC50

NCCn1ccnc1C(=O)O :: > 300 µM
COC(=O)C(C)n1ccnc1C(=O)O (centres undefined) :: > 300 µM
C=CCCn1ccnc1C(=O)O :: 1.05 µM
CC(C)Cn1ccnc1C(=O)O :: 1.1 µM
O=C(O)c1nccn1Cc1ccsc1 :: 5.07 µM

Give IC50 for each listed item.
1. O=C(O)c1nccn1CCn1ccnn1
2. Nc1nc2c(Cn3ccnc3C(=O)O)cccc2s1
3. CC(O)Cn1ccnc1C(=O)O (centres undefined)
4. O=C(O)c1nccn1Cc1ccc([N+](=O)[O-])cc1
5. O=C(O)c1nccn1C1COC1
6. COc1ccc(Cn2ccnc2C(=O)O)cc1

6.68 µM
0.16 µM
> 300 µM
2.7 µM
> 300 µM
0.38 µM

Give IC50 for each listed item.
1. CCn1ccnc1C(=O)O
2. NC(=O)Cn1ccnc1C(=O)O
3. O=C(O)c1nc(C2CC2)cn1Cc1ccccc1
4. O=C(O)c1ncc(-c2ccccc2)n1Cc1ccccc1
5. O=C(O)c1nccn1Cc1ccc(F)c(F)c1
6. O=C(O)c1nccn1Cc1ccco1

32 µM
118 µM
11.5 µM
0.015 µM
15.8 µM
1.55 µM

Give IC50 for each listed item.
1. CCc1ccc(Cn2ccnc2C(=O)O)cc1
2. Cn1ccnc1C(=O)O

5.79 µM
> 300 µM

----------
Assignment: determine reported MIC for the given molecules.
# Test system: Escherichia coli
# Measurement protocol: Potentiation of meropenem-induced antibacterial activity against Escherichia coli C1580 expressing VIM-2 assessed as meropenem MIC at 10 ug/ml incubated for 18 to 20 hrs by CLSI based broth microtiter dilution method (reference value: 32 ug/ml)
# Assay type: functional
# Test parameters: dose 10 µg/ml, time 18-20 hrs
Give your result as the value with the unit written after it.

C=CCCn1ccnc1C(=O)O :: 32 µg/mL
C=CCCn1c(C)cnc1C(=O)O :: 8 µg/mL

Give MIC for each listed item.
1. O=C(O)c1nccn1Cc1ccncc1
2. O=C(O)c1nccn1Cc1ccccc1
3. O=C(O)c1nccn1Cc1cc(Br)cc(Br)c1

1. 1 µg/mL
2. 16 µg/mL
3. 4 µg/mL

----------
# Measurement protocol: Inhibition of bacterial IMP-1 (1 to 246 residues) expressed in Escherichia coli Transetta (DE3) using FC-5 as substrate preincubated with enzyme for 10 mins followed by substrate addition by fluorescence based analysis
# Parameters: species or system Bacteria
pIC50: −log10 of the molar value.
Assignment: determine reported pIC50 for the given compounds.

Consider the worked cases shown below.
O=C(O)c1nccn1Cc1ccccn1 :: < 3.52
O=C(O)c1nccn1Cc1ccc(F)c(F)c1 :: < 3.52
CN(C)CCCn1ccnc1C(=O)O :: < 3.52
Cc1ccc(Cn2ccnc2C(=O)O)cc1 :: < 3.52

Now turn to the next compound.
Value lookup for pIC50; key = "Cc1cn(Cc2ccccc2)c(C(=O)O)n1" 5.82

// provenance: ChEMBL document CHEMBL5154646
